The compounds listed here are annotated with their AC50.
Molecular target: Cytochrome P450 3A4 (Homo sapiens, UniProt P08684);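 note: CYP3A4 tested as one member of a cytochrome P450 panel screen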
Sequence (P08684 whole entry): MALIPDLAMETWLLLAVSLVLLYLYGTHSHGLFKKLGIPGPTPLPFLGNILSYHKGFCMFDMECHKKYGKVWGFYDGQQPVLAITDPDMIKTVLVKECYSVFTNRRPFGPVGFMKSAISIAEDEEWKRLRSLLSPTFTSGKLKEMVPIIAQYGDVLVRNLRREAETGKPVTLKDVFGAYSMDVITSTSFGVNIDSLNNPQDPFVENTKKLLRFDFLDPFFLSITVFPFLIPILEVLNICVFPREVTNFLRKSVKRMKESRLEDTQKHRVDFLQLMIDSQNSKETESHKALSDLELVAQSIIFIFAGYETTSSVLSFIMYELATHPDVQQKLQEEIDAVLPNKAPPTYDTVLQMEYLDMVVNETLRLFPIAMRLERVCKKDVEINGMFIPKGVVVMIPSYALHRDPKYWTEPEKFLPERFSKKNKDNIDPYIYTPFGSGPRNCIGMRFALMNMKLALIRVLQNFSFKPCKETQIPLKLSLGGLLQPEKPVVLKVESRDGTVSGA
MEASUREMENT_LABEL: AC50

| MOLECULE_SMILES | REPORTED_MEASUREMENT |
| --- | --- |
| Cc1noc(C)c1C(=O)N1CCC2(CCCN(c3ccccc3)C2)CC1 | 15.8 µM (inconclusive) |
| Cc1cc2ncn(/N=C/c3ccc([N+](=O)[O-])o3)c2cc1C | 15.8 µM (inconclusive) |
| O=C(NC1CCCCC1)c1sc(=S)n2c1[nH]c(=O)c1ccccc12 | 0.794 µM (inconclusive) |
| COc1cccc(Nc2ncc3nc(CCc4ccccc4)c(=O)n(CCC#N)c3n2)c1 | 2 µM (inconclusive) |
| O=C(c1ccccc1-c1nc(-c2ccccc2)no1)N1CCOCC1 | 28.2 µM (inconclusive) |
| O=C1CN=C(Nc2ccc(Cl)cc2)N1c1ccccc1 | 14.1 µM (inconclusive) |
| NC(=O)CN1CCN(c2nc(-c3ccc(F)cc3)cs2)CC1 | 14.1 µM (inconclusive) |
| Cn1cc(-c2nc3cnc(Oc4cccc(Cl)c4)nc3n(CCC#N)c2=O)c2ccccc21 | 7.94 µM (inconclusive) |
| CCOC(=O)N1CCC(NC(=O)c2cc(S(=O)(=O)N3CCCC3)cn2C)CC1 | 14.1 µM (inconclusive) |
| COc1ccccc1N1CCN(CCn2c(=O)[nH]c3c([nH]c4ccccc43)c2=O)CC1 | 15.8 µM (inconclusive) |

====

Listed below: IC50 values for each entry.
Molecular target: Beta-galactosidase (Escherichia coli)
Sequence (Q8VNN2 whole entry): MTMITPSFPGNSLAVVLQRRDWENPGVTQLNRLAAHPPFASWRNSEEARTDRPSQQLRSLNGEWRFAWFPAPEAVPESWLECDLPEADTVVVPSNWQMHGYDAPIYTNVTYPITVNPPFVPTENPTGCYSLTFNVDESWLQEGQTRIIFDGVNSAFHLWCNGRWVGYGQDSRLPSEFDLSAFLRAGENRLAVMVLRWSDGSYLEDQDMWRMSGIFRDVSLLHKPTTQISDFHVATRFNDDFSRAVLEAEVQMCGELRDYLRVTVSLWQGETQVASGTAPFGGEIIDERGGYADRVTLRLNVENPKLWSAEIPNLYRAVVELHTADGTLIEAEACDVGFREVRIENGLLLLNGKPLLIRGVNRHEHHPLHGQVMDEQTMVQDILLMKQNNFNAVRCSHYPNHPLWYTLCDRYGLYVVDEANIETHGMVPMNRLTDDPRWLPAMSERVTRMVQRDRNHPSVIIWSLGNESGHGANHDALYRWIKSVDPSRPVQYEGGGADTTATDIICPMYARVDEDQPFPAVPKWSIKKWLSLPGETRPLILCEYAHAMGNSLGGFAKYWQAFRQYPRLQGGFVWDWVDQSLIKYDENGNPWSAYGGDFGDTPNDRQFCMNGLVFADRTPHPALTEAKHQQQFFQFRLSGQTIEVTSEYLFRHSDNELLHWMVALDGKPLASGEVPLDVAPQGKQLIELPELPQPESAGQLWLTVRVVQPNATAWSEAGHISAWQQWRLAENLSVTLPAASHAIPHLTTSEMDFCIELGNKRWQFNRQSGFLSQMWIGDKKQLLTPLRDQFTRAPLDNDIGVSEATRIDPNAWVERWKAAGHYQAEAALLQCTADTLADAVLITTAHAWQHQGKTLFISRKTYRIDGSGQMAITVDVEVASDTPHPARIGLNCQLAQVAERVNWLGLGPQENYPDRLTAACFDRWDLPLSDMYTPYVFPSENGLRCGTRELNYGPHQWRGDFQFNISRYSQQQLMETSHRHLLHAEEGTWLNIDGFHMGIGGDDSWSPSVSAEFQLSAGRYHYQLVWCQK
Assay: Dose response counterscreen for EBI2 assay utilizing the enzyme, b-galactosidase.
Assay type: functional
Activity calls are given as the source filed them. How the calls were made is not given here.

| MOLECULE_SMILES | IC50 |
| --- | --- |
| O=C(c1cc(-c2cccc(O)c2)on1)N1CCN(C(c2ccccc2)c2ccccc2)CC1 | 151 µM (inactive) |
| COc1cccc(CN2CCN(C(=O)COc3ccc4ccccc4c3)CC2)c1 | > 80 µM (inactive) |
| O=C(/C=C/c1ccc(Br)cc1)N1CCN(Cc2ccccc2)CC1 | > 80 µM (inactive) |
| O=C(/C=C/c1ccccc1)N1CCN(Cc2nc(O)c3ccccc3n2)CC1 | > 80 µM (inactive) |

====

Molecular target: DNA repair protein RAD52 homolog (Homo sapiens)
Sequence (P43351 whole entry): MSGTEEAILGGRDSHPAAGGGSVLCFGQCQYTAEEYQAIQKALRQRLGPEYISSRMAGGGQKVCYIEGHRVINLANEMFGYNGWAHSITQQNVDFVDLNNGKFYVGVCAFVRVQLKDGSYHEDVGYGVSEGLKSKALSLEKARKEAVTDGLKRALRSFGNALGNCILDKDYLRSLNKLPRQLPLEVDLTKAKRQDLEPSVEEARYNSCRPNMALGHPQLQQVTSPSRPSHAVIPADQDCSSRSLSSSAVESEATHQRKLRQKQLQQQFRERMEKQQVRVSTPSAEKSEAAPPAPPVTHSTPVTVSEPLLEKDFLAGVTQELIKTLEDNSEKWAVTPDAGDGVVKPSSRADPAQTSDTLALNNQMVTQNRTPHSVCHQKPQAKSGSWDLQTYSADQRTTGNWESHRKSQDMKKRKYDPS
Type: functional, biochemical
Active and inactive are the calls of the source.
MEASUREMENT_LABEL: AC50

| COMPOUND | TGT | REPORTED_MEASUREMENT |
| --- | --- | --- |
| CCOc1ccc(NCc2cccn2-c2nnc(N3CCC(C(=O)NCCCN4CCCCC4C)CC3)s2)cc1 (stereo not given) | DNA repair protein RAD52 homolog (Homo sapiens) | 19.6 µM (active) |
| OC(CN1CCCC1)Cn1ccc2ccccc21 (stereo not given) | DNA repair protein RAD52 homolog (Homo sapiens) | 16.1 µM (active) |
| Cc1ccc(-c2nc(NCCN(C)C)c3ccccc3n2)cc1 | DNA repair protein RAD52 homolog (Homo sapiens) | 8.93 µM (active) |
| COc1cc(CNC(C)(C)CO)cc(Br)c1OCc1ccc(Cl)cc1Cl | DNA repair protein RAD52 homolog (Homo sapiens) | 18.5 µM (active) |
| COc1cccc(OCC(O)CN2CCC(CN3C(=O)c4cccc5cccc(c45)C3=O)CC2)c1 (stereo not given) | DNA repair protein RAD52 homolog (Homo sapiens) | 10.6 µM (active) |
